For each of the molecules below, state its MIC.
- System: Salmonella enterica
- method notes: Antibacterial activity against Salmonella enterica after 16 to 20 hrs by broth microdilution method
- Assay type: functional
Give bare numbers, in mg/L.

Here's what some known entries look like.
For CCCCN(CCCC)C(=O)[C@@H](N)CCCCN.Cl.Cl , write its MIC.
128

Given CCCCCCCCCN(CCCCCCCCC)C(=O)[C@@H](N)CCCN=C(N)N.Cl.Cl.Cl , respond with its MIC.
4

Retrieve MIC measured for CCCCCCCCN(CCCCCCCC)C(=O)[C@@H](N)C(C)O.Cl (stereo partly specified) and print it.
64

State, in one line, measured MIC of CCCCCCN(CCCCCC)C(=O)[C@@H](N)CCCCN.Cl.Cl
64

Give a short answer stating reported MIC for CCCCCN(CCCCC)C(=O)[C@@H](N)CCCCN.Cl.Cl .
128

Please report the measured MIC for CCCCCCCCN(CCCCCCCC)C(=O)[C@@H](N)CCCCN.Cl.Cl
4

Tell me its MIC given CCCCCCCCCCN(CCCCCCCCCC)C(=O)[C@@H](N)CCCN=C(N)N.Cl.Cl.Cl as the entry.
4

Supply recorded MIC for CCCCCCCCCN(CCCCCCCCC)C(=O)[C@@H](N)CCCCN.Cl.Cl here.
2

Indicate the recorded MIC value for this molecule: CCCCCCCCN(CCCCCCCC)C(=O)[C@H](N)CO.Cl
8

Specify MIC for CCCCCCCCCCN(CCCCCCCCCC)C(=O)[C@@H](N)CCCCN.Cl.Cl and stop.
2

Provide reported MIC for each item, in the same order as listed.
1. CCCCCCCCCCCN(CCCCCCCCCCC)C(=O)[C@@H](N)CCCCN.Cl.Cl
2. CCCCCCCN(CCCCCCC)C(=O)[C@@H](N)CCCCN.Cl.Cl
3. CCCCCCCCN(CCCCCCCC)C(=O)[C@@H](N)CCCN=C(N)N.Cl.Cl.Cl

[8, 16, 8]

Required: MIC, one value per molecule below.
1. CCCCCCCCN(CCCCCCCC)C(=O)[C@H](C)N.Cl
2. CCCCCCCCN(CCCCCCCC)C(=O)[C@@H](N)CO.Cl

[32, 8]

Source listed as ChEMBL document CHEMBL4130549.
